Tested on: HUV-EC-C cells (aFGF, FGF-R)
Method Notes: cells
Assay type: cell-based
Condition Label: Homo sapiens, HUVEC; aFGF-stimulated; read-out: HUVEC aFGF IC50
Mark condition met only when IC50 stays strictly below 200 nM. Values equal to the cut-off are condition not met.

A selection of reference data follows.
Request: I wonder whether O=C(O)CCc1c(/C=C2\C(=O)Nc3ccc(Cl)cc32)[nH]c2c1CCCC2 has IC50 below 200 nM. Can you tell?
Response: condition not met

Request: Let us now turn to CNC(=O)CCc1c(/C=C2\C(=O)Nc3ccccc32)[nH]c2c1CCCC2
Response: condition met

Request: Now the same for NC(=O)CCc1c(/C=C2\C(=O)Nc3ccccc32)[nH]c2c1CCCC2
Response: condition met

---
Request: Would you kindly verify if IC50 of CN(C)C(=O)CCc1c(/C=C2\C(=O)Nc3ccccc32)[nH]c2c1CCCC2 is strictly less than 200 nM?
Response: condition not met

Request: Consider next the compound COc1ccc2c(c1)NC(=O)/C2=C\c1[nH]c2c(c1CCC(=O)O)CCCC2 in the same way.
Response: condition not met

====

Target Entity: chimeric receptor having the extra-cellular domain of EGF-R and the intra-cellular domain of Her2 (Homo sapiens)
Construct: fused on or other part: the same chimera
Sequence (P04626 676-1255 limits assumed, change not shown): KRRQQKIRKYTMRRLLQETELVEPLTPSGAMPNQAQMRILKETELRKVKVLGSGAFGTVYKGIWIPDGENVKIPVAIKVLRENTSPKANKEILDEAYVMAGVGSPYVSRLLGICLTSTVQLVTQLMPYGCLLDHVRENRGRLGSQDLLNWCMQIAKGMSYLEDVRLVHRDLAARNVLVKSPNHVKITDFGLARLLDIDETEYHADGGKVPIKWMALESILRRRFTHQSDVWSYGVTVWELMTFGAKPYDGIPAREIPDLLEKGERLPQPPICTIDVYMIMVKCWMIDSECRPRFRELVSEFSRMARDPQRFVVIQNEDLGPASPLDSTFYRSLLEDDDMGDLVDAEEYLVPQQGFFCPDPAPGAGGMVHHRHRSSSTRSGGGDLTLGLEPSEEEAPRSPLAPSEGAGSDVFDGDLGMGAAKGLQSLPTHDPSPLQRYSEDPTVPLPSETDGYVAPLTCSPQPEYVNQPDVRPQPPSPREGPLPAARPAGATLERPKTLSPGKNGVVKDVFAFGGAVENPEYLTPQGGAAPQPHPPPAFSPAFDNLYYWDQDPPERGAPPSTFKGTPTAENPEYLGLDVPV
Method Notes: EGF-induced Her2-driven BrdU incorporation
Condition Label: read-out: BrdU HER 2 driven IC50
Sorting guide: entries reporting IC50 beneath 30 µM go in the MET pile, the rest go in the NOT MET pile.

Request: Lab log: compare recorded IC50 with 30 µM; is it strictly lower for COc1cc(C)c(/C=C2/C(=O)Nc3ncccc32)cc1C(C)C ?
Response: NOT MET

Request: Same read-out for COc1ccc(/C=C2/C(=O)Nc3ccc(Cl)cc32)cc1-c1cccnc1 ?
Response: NOT MET

Request: Same again, this time with COc1ccc(/C=C2/C(=O)Nc3ccccc32)cc1C1CCCCC1
Response: NOT MET

Others:
Request: Say whether its IC50 is strictly beneath 30 µM. Entry: COc1ccc(/C=C2/C(=O)Nc3ccc(Cl)cc32)cc1-c1cccs1
Response: MET

Request: Okay, and COc1cc(C=C2C(=O)Nc3ccccc32)c(-c2ccccc2OC)cc1OC ?
Response: MET

Request: // repeat for CC1(C)CCc2cc(/C=C3/C(=O)Nc4ccc(F)cc43)ccc2O1 and report
Response: MET

Request: What about this compound? COc1ccc(/C=C2/C(=O)Nc3ccc(CCN4CCOCC4)cc32)cc1-c1ccsc1
Response: NOT MET

Request: Then this compound: COc1cc(/C=C2/C(=O)Nc3ccccc32)c(-c2cccs2)cc1OC
Response: MET

Request: Ok, now COc1c(C(C)C)cc(/C=C2/C(=O)Nc3ccc(C(C)=O)cc32)cc1C(C)C
Response: MET

====

Target Entity: PDGFR-β (Homo sapiens)
Sequence (P09619 33-1106): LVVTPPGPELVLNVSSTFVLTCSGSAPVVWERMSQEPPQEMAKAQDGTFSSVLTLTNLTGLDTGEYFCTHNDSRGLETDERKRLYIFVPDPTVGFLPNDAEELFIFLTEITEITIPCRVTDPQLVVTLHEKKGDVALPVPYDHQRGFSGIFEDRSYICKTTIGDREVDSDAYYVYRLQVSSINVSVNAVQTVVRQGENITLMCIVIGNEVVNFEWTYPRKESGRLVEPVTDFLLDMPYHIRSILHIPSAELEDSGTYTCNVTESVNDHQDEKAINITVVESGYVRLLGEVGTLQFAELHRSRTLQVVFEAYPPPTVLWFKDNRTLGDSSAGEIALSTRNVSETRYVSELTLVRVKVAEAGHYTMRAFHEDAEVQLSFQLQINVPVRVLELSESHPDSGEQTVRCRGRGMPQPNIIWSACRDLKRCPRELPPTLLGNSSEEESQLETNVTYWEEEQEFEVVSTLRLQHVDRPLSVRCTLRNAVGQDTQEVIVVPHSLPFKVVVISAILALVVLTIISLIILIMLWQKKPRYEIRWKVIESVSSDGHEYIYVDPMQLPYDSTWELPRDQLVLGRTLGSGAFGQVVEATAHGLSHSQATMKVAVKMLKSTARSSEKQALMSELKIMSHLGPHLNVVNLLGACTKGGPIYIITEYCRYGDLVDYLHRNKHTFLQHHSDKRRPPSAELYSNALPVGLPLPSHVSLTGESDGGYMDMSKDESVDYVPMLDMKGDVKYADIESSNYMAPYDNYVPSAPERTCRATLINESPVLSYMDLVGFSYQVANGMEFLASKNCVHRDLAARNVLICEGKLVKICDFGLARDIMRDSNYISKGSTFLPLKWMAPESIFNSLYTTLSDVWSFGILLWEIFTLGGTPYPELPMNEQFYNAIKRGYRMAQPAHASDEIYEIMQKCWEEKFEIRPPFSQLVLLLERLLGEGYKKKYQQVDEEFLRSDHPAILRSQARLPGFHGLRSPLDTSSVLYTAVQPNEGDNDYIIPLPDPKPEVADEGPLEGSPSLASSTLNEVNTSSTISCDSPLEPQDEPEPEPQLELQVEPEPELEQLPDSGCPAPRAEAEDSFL
Method Notes: Biochemical PDGFR assay (ELISA, PDGFR-β expressing NIH 3T3 cell lysate)
Condition Label: read-out: bio PDGF IC50
Measurement Name: log10 of IC50 (log10 of the value in µM)
Values below are the log10 of the recorded IC50, with µM as the unit.

Some entries whose results are on file:
Request: So what's the measured log10 of IC50 for this one? COc1ccc2c(c1)/C(=C/c1[nH]c3ccccc3c1CCCN(C)C)C(=O)N2
Response: -0.19

Request: Item: O=C(CCc1c(/C=C2\C(=O)Nc3ccccc32)[nH]c2c1CCCC2)NCCN1CCOCC1
Response: 0.98

Request: # repeat for CCOC(=O)c1c(C)[nH]c(/C=C2\C(=O)Nc3cc(-c4ccc(F)cc4)ccc32)c1CCC(=O)O
Response: 0.47

Request: Thanks! And O=C1Nc2ccc(N=Cc3cc4ccccc4[nH]3)cc2C1=Cc1cc2ccccc2[nH]1 ?
Response: 1.84

Request: Entry O=C(O)CCc1c(/C=C2\C(=O)Nc3ccc(Cl)cc32)[nH]c2c1CCCC2 please
Response: -1.30

Others:
Request: Bench note: what log10 of IC50 did Cc1c[nH]c(/C=C2\C(=O)Nc3ccccc32)c1CCC(=O)O show?
Response: -0.30

====

# pIC50 listing for each entry below
Target Entity: src protein kinase (Gallus gallus)
Construct: host or cells: Schizosaccharomyces pombe SP200
Method Notes: Biochemical SRC assay (phosphorylation of biotinylated peptide)
Condition Label: read-out: bio src IC50
Hey, just a heads up that pIC50 is the negative log base 10 of the concentration in molar.

Solved cases below.
Request: So what does the record say about pIC50 for COc1cccc(-c2ccc3c(c2)NC(=O)/C3=C\c2[nH]c3c(c2CCC(=O)O)CCCC3)c1 ?
Response: 5.35

Request: How about this molecule: COc1ccc(-c2ccc3c(c2)NC(=O)/C3=C\c2[nH]c3c(c2CCC(=O)O)CCCC3)cc1
Response: 5.87

Request: Moving on to O=C(O)CCc1c(/C=C2\C(=O)Nc3cc(-c4ccccc4)ccc32)[nH]c2c1CCCC2
Response: 6.13

More entries:
Request: GET /values?readout=pIC50&item= O=C(O)CCc1c(/C=C2\C(=O)Nc3ccc(Cl)cc32)[nH]c2c1CCCC2
Response: 4.92

====

Target Entity: EGFR (Homo sapiens, UniProt P00533)
Sequence (P00533 25-1210): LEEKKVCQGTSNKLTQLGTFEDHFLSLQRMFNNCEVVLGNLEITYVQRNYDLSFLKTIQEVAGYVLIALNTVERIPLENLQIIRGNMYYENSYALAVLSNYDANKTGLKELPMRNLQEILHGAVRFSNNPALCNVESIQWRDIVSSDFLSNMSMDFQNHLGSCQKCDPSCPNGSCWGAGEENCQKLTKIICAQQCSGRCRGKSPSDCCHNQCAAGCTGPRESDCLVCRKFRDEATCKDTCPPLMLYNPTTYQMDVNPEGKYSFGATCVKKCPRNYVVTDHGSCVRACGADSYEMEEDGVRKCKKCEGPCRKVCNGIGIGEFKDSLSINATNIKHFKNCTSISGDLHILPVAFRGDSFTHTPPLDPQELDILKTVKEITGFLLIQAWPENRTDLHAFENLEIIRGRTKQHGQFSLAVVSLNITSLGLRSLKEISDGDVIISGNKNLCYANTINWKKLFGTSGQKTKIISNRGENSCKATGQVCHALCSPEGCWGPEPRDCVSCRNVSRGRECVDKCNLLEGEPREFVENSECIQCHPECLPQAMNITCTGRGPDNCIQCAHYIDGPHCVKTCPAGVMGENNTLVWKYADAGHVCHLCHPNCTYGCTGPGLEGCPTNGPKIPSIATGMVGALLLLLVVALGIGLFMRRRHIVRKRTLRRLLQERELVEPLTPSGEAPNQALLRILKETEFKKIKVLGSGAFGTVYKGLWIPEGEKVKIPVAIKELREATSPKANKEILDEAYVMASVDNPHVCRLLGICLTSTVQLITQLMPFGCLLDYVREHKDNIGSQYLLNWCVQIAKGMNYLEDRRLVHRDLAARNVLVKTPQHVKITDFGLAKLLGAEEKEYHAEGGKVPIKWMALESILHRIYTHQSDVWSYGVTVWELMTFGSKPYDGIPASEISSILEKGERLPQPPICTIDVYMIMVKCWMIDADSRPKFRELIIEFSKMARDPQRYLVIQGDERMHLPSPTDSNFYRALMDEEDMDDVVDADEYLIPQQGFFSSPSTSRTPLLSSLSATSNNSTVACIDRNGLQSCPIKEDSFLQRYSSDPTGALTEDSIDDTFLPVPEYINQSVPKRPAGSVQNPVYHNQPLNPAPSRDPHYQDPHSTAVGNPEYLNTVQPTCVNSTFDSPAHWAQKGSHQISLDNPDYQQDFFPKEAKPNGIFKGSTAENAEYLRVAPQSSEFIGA
Method Notes: Biochemical EGFR assay (ELISA, A431 cell lysate)
Design: A431 cell lysate (Screening Lab, SUGEN, Inc.); host or cells: A431
Condition Label: read-out: bio EGFr IC50
Measurement Name: IC50

Solved entries:
Request: Entry under review: COc1ccc(/C=C2/C(=O)Nc3ccccc32)cc1C(C)C [Example 7] . Reported IC50?
Response: > 100 µM

Request: Item: CCOC(=O)c1c(C)[nH]c(/C=C2\C(=O)Nc3cc(-c4ccccc4OC)ccc32)c1CCC(=O)O [Example 110]
Response: > 100 µM

Request: // repeat for CNS(=O)(=O)c1ccc2c(c1)/C(=C/c1[nH]c(C)c(C(=O)O)c1CCCN(C)C)C(=O)N2 [Example 138] and report
Response: > 100 µM

Request: What about this molecule? COc1c(C(C)C)cc(/C=C2/C(=O)Nc3ncccc32)cc1C(C)C [Example 74]
Response: 13.2 µM

Request: Now consider CCOC(=O)c1c(C)[nH]c(/C=C2\C(=O)Nc3ccc(Cl)cc32)c1CCC(=O)O [Example 112] and answer again.
Response: > 100 µM

Request: Moving on to the next molecule: COc1ccc(/C=C2/C(=O)Nc3ccccc32)cc1C1CCCCC1 [Example 12]
Response: > 100 µM

Request: Let us now turn to COc1c(C(C)C)cc(/C=C2/C(=O)Nc3ccc(Br)cc32)cc1C(C)C [Example 54]
Response: > 100 µM

Request: Now try COc1ccc(/C=C2\C(=O)Nc3cccc(C)c32)cc1C1CCCC1 [Example 48] .
Response: > 100 µM

Request: Also need COc1ccc(/C=C2/C(=O)Nc3ncccc32)cc1-c1ccccc1 [Example 71] , thanks.
Response: 29.6 µM

Request: Cc1[nH]c2ccccc2c1/C=C1\C(=O)Nc2ccc(C(=O)O)cc21 [Example 182]
Response: > 100 µM

New cases:
Request: Name the reported IC50 value associated with the molecule CC(=O)Nc1ccc2c(c1)NC(=O)/C2=C/c1ccc(OCCN2CCOCC2)c(C(C)(C)C)c1 [Example 55]
Response: > 100 µM

Request: Then what about the molecule COc1ccc(/C=C2/C(=O)Nc3ccc(Cl)cc32)cc1C1CCCCC1 [Example 51] ?
Response: > 100 µM

Request: Same question, CCOC(=O)c1[nH]c(/C=C2\C(=O)Nc3ccc(Br)cc32)c(CCC(=O)O)c1C [Example 143] this time
Response: > 100 µM

Request: // next record COc1c(C)cc(/C=C2/C(=O)Nc3ncccc32)cc1C [Example 56]
Response: 10.1 µM

Request: Try COc1c(C(C)C)cc(/C=C2/C(=O)Nc3cc(NC(=O)OC(C)(C)C)ccc32)cc1C(C)C [Example 52] next.
Response: > 100 µM

Request: Consider next the molecule Cc1[nH]c2ccccc2c1/C=C1\C(=O)Nc2ccc(N)cc21 [Example 187] in the same way.
Response: > 100 µM

Request: Also COc1cc(/C=C2/C(=O)Nc3ccccc32)c(-c2ccc3ccccc3c2)cc1OC [Example 62] ?
Response: > 100 µM

Request: Same question for COc1ccc(C=C2C(=O)Nc3ccccc32)cc1-c1cccc(NC(C)=O)c1 [Example 29] please.
Response: > 100 µM

====

Target Entity: EGFR (Homo sapiens, UniProt P00533)
Method Notes: Biochemical EGFR assay (ELISA, A431 cell lysate)
Parameters: A431 cell lysate (Screening Lab, SUGEN, Inc.); host or cells: A431
Condition Label: read-out: bio EGFr IC50
Experimental: This assay measures the in vitro kinase activity of EGFR using ELISA. Materials and Reagents • 1. […] SUMO1 monoclonal anti-EGFR antibody (Biochemistry Lab, SUGEN, Inc.). • 3. PBS (Dulbecco's Phosphate-Buffered Saline, Gibco Catalog No. 450-1300EB). • 4. TBST Buffer • 6. […] Mix first two ingredients in about 900 ml dH2O, adjust pH to 4.0 with phosphoric acid. […] The solution should be kept in the dark at 4° C. until ready to use. • 17. […] Procedure • 1. […] Read assay on Dynatech MR7000 ELISA reader. […]
Measurement Name: IC50

Request: Which IC50 value is on record for COc1ccccc1-c1ccc2c(c1)NC(=O)/C2=C\c1[nH]c(C)cc1CCC(=O)O ?
Response: > 100 µM

Request: What do you have for COc1cccc(-c2cc(OC)c(OC)cc2/C=C2/C(=O)Nc3ccc(Cl)cc32)c1 ?
Response: > 100 µM

Request: // query: COc1ccc(/C=C2/C(=O)Nc3ncccc32)cc1C1CCCC1
Response: 36.8 µM

Request: Note, next up: O=C(O)CCc1ccccc1/C=C1/C(=O)Nc2ccccc21
Response: > 100 µM

Request: Field entry: COc1c(C(C)C)cc(/C=C2/C(=O)Nc3ccccc32)cc1C(C)C
Response: > 100 µM

Request: Now give it for Cc1cccc2c1/C(=C/c1[nH]c3c(c1CCC(=O)O)CCCC3)C(=O)N2 too.
Response: 90.7 µM

Next:
Request: I have this compound here, CCOC(=O)c1[nH]c(/C=C2\C(=O)Nc3cc(OC)ccc32)c(CCC(=O)O)c1C , and I need its recorded IC50.
Response: > 100 µM

Request: Note, next up: CC1(C)CCc2cc(C=C3C(=O)Nc4ccc(Br)cc43)ccc2O1 (racemic)
Response: > 100 µM

Request: Another: Cc1cc(CCC(=O)O)c(/C=C2\C(=O)Nc3cc(-c4ccc(F)cc4)ccc32)[nH]1
Response: > 100 µM
